# Test system: Escherichia coli ATCC 25922
# PROTOCOL: Oral formulations on mice with systemic bacterial infection
# Type: in vivo, ICR mice
# EXPERIMENTAL CONDITIONS: 0.2 mg/kg gavage, three times a day for 7 days, n = 10
Non-standard residues stand in square brackets, D forms with d. Residues, ends and D or L forms follow the SMILES beside them. dPhe(3,4-F2) = N[C@H](Cc1ccc(F)c(F)c1)C(=O)O
REPORTED ENDPOINT: Number of mice that died on each day after infection: day 5
Provide a numeric answer, followed by its unit.

MOLECULE: CC(=O)N[C@H](CCCNC(=N)N)C(=O)N[C@H](CCCCN)C(=O)N[C@H](CC(C)C)C(=O)N[C@H](CC(C)C)C(=O)N[C@H](Cc1ccc(F)c(F)c1)C(=O)N[C@H](CCCCN)C(=O)N[C@H](CC(C)C)C(=O)N[C@H](CCCCN)C(=O)N[C@H](Cc1ccc(F)c(F)c1)C(=O)N[C@H](CCCCN)C(=O)N[C@H](CCCNC(=N)N)C(N)=O [LV-6] (Ac-[dR][dK][dL][dL][dPhe(3,4-F2)][dK][dL][dK][dPhe(3,4-F2)][dK][dR]-NH2)
TARGET SYSTEM: Escherichia coli ATCC 25922
READOUT VALUE: 3 Mouse

For the next question, use this molecule.
The observed Number of mice that died on each day after infection: day 5 for CC(=O)N[C@H](CCCCN)C(=O)N[C@H](CCCCN)C(=O)N[C@H](CC(C)C)C(=O)N[C@H](CC(C)C)C(=O)N[C@H](Cc1ccc(F)c(F)c1)C(=O)N[C@H](CCCNC(=N)N)C(=O)N[C@H](CC(C)C)C(=O)N[C@H](CCCCN)C(=O)N[C@H](Cc1ccc(F)c(F)c1)C(=O)N[C@H](CCCNC(=N)N)C(=O)N[C@H](CCCCN)C(N)=O [LV-25] (Ac-[dK][dK][dL][dL][dPhe(3,4-F2)][dR][dL][dK][dPhe(3,4-F2)][dR][dK]-NH2) when tested with Escherichia coli ATCC 25922 stands at 1 Mouse

Every entry's value here was drawn from patent US20250304620A1.
